Below, each entry is listed alongside its reported % Change Compared to pH 7.4 + Calcium.
- SYSTEM_NAME: T1, recombinant, soluble human ASGR-1 (human, UniProt P07306 62-291)
- T1 construct: biotinylated in the binning assay; also called soluble huASGR-1; Soluble ASGR-1 (Amgen)
- T1 sequence: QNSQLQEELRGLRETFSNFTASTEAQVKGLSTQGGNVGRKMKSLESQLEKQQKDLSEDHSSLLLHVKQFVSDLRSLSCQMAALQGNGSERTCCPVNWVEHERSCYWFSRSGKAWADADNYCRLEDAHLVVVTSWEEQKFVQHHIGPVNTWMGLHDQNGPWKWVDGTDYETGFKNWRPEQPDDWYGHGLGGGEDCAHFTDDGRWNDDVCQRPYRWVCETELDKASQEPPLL
- ASSAY_NAME: Octet BLI dissociation, pH 5.6 plus calcium
READOUT: % Change Compared to pH 7.4 + Calcium (%)

[
  {
    "BINDER": "4H6 (antibody, V domains shown, hybridoma mAb) VH: QVQLVQSGAEVKKPGASVKVSCKASGYTFTDYYLHWVRQAPGQGLEWMGWIHPNSGGTNYAQKFQGRVTMTRDTSISTAYMGLSSLRSDDTAVYYCARDGTSSFDYWGQGTLVTVSS VL: DIQMTQSPSSVSASVGDRVTITCRASQGISRWLAWYQQKPGKAPKLLIYGASSLQSGVPSRFSGSGSGTDFTLTISSLQPEDFAIYYCQQANSFPFTFGPGTKVDIK",
    "OBS_VALUE": -1
  },
  {
    "BINDER": "227C1 (antibody, V domains shown, hybridoma mAb) VH: QVQLVQSGAEVKKPGASVKVSCKASGYTFTGYYTHWVRQAPGQGLEWMGWINPYSGGTNYAQKFQGRVTMTRDTSISTAYMELSRLRFDDTAVYYCARDWGGYSSYYYGMDVWGQGTTVTVSS VL: DIVMTQTPLSLSVTPGQPASISCKSSQSLLHSDGKTFLYWYLQKPGQPPQLLIYEISNRFSGVPDRFSGSGSGTDFTLKISRVEAEDVGIYYCMQSTQLPRTFGQGTKVEIK",
    "OBS_VALUE": 54
  },
  {
    "BINDER": "56E5 (antibody, V domains shown, hybridoma mAb) VH: QVQLVQSGAEVKKPGASVKVSCQASGYTFTGYHMHWVRQAPGQGLEWMGWINPNNNATNYAQKFQGRVTMTRDTSISTAYMELRRLRSDDTAVYHCARDGTSSFDYWGQGTLVTVSS VL: DIQMTQSPSSVSASVGDRVTITCRASQGIRKWLAWYQQKPGKAPKLLIYAASSLQSGVPSRFSGSGSGTDFTLTISSLQPEDFATYYCQQANSFPFTFGPGTKVDIK",
    "OBS_VALUE": -6
  }
]
